system: SF-295 CNS; test: NCI tumour cell line growth inhibition, 48 h

smiles entry	TGI
C[n+]1c(/C=C/c2ccc(O)c3ncccc23)[se]c2ccccc21	25.1 µM
CCN(CC)CCO/N=C1\CC[C@H]2[C@@H]3CCc4cc(OC)ccc4[C@H]3CC[C@]12C	3.78 µM
COc1ccc(F)c(F)c1C(=O)c1cnc(NC2CCN(S(C)(=O)=O)CC2)nc1N	> 100 µM
O=S1CSSC1	65.1 µM
N#Cc1c(-c2ccco2)cc(-c2ccccc2)[nH]c1=O	> 100 µM
Cc1ccc(NC(=O)/C(Cc2nc3ccc([N+](=O)[O-])cc3[nH]c2=O)=N\NC(=O)C[n+]2ccccc2)c(C)c1	> 100 µM

###

system: HCT-15 colon; assay: NCI tumour cell line growth inhibition, 48 h

molecule	TGI
O=[N+]([O-])/C(Cl)=C(\NCCN/C(C(Cl)=C(Cl)Cl)=C(/Cl)[N+](=O)[O-])C(Cl)=C(Cl)Cl	> 100 µM
COc1ccc2c(c1)c(=O)c1c(NCCNCCO)ccc3c(=O)n(CCN(C)C)c(=O)n2c31	6.39 µM
COc1ccc(OC)c2sc(N3C(=O)/C(=C/c4cccc([N+](=O)[O-])c4)N=C3c3ccccc3)nc12	> 100 µM
c1ccc2[nH]c(CNc3ccc(C4C[Se]N=N4)cc3)nc2c1 (centres undefined)	> 100 µM
O=c1c2ccccc2sc2ccccc12	> 100 µM
CC1(C)N=C2C(=O)c3c([nH]c4ccccc34)[C@]3(C)CCC1CC23 (some centres undefined)	> 6.25 µM
COc1ccc(NC(C)c2ccncc2)cc1 (centres undefined)	> 100 µM
Cc1cc(C)n(C2=NS(=O)(=O)c3ccccc3N2C)n1	> 100 µM
COc1cccc2c1OCC1Cc3ccccc3OC21 (centres undefined)	> 100 µM
COc1ccc(C2c3cc4c(cc3OC(NCCO)C2C)OCO4)cc1 (centres undefined)	54.4 µM
O=C1OC(c2ccccc2)N(C(=O)c2ccccc2)C1Cc1ccc(OCc2ccccc2)cc1 (centres undefined)	> 100 µM
CC(C)/C(Cl)=N/OC(=O)Nc1ccc(OC(F)(F)F)cc1	18.8 µM
COc1ccc(C2Oc3c(c(O)cc4c3[C@H](c3ccc(O)cc3O)[C@H](O)C(c3ccc(O)c(O)c3)O4)C[C@@H]2O)cc1O (some centres undefined)	> 100 µM
O=C(/C=C/c1cccc(O)c1)c1cccc(-n2cc(-c3ccc4ccccc4c3)[nH]c2=O)c1	4.8 µM
COc1ccc(-c2c(C3=NCCCN3)nnn2-c2ccc([N+](=O)[O-])cc2)cc1	> 100 µM
C/C1=C\CC[C@@](C)(O)[C@@H]2C[C@H](CC/C(C)=C/CC1)C1(CC1)C(=O)O2	> 100 µM
Cc1cccc(C)c1N1C(=O)C(=O)C(c2nc3ccccc3s2)C(=Nc2cccc3c(=O)[nH][nH]c(=O)c23)C1=O (centres undefined)	> 100 µM
Cc1c(-c2ccccc2)[nH]n(C2=NCCN2)c1=O	> 100 µM
CCOC(=O)N1CCN(CCCCCOc2ccccc2C2CCCCC2)CC1	12.9 µM
O=C(CC(=O)Nc1ccccc1)NNC(c1cc(N=Nc2ccc(Br)cc2)ccc1O)P(O)O (centres undefined)	> 10 µM
S=C1NC2=C(CSC/C2=C\c2ccccc2)C(c2ccccc2)N1 (centres undefined)	> 100 µM
CC(C)C(N)C(=O)NC(CCC(=O)NCCCCC(N)C(=O)NCCCNc1ccc([N+](=O)[O-])c2[nH]c3ccccc3c(=O)c12)C(N)=O (centres undefined)	> 100 µM
COc1ccc(C(=O)c2nc3ccccc3n2CC(=O)c2ccc(Cl)cc2)cc1	> 100 µM
O=C(NN1C(=O)CSC1c1cccc(F)c1)c1ccncc1 (centres undefined)	> 100 µM
COc1cc(C2c3cc4c(cc3[C@@H](Nc3ccc5c(c3)OCO5)C3COC(=O)[C@H]23)OCO4)cc(OC)c1O (some centres undefined)	2.15 µM
Cn1c(=O)nc2n(-c3ccc(Cl)c(C(F)(F)F)c3)c3ccccc3nc-2c1=O	> 100 µM
O=C(O)CN(CC(=O)O)C(C(=O)O)c1ccccc1 (centres undefined)	> 100 µM
CCN1C(=O)C(=C/C=C/c2ccc(N(CC)CC)cc2)C(=O)N(CC)C1=S	> 100 µM
O=C(CC1(O)C(=O)Nc2c(Cl)ccc(Cl)c21)c1ccc(Cl)cc1Cl (centres undefined)	> 100 µM
C/C(=C\CO)CC/C=C(\C)CNc1ccc([N+](=O)[O-])cc1	> 100 µM
Cc1cc(C)nc(NS(=O)(=O)c2ccc(NC(=O)c3cccc4c(NNc5ccc(S(=O)(=O)N=C(N)N)cc5)c5ccccc5nc34)cc2)n1	> 50 µM
C=C1C(=O)C23C(O)CC4C5(C)CCCC4(C(O)OC5)C2C(OC(C)=O)CC1C3O (centres undefined)	27.4 µM
C[n+]1c(/C=C/c2ccc(O)c3ncccc23)[se]c2ccccc21	17.6 µM
O=C(O)c1ccccc1C(=O)c1ccc2c(c1)Cc1ccccc1-2	> 100 µM
CC1OC(c2ccc3c(c2O)C(=O)C2=C(C3=O)C3(O)C(=O)CC(C)(O)CC3(O)C=C2)CC(O)C1O (centres undefined)	29.7 µM
CC(C)N1CN(c2ccccc2)C2(CCN(CCCC(=O)c3ccc(F)cc3)CC2)C1=O	40.5 µM
C=C1C2Oc3ccccc3C1N(c1ccccc1)O2 (centres undefined)	> 100 µM
O=C1[C@H]2ON(c3ccccc3)C(c3ccco3)[C@H]2C(=O)N1c1ccc(Cc2ccc(N3C(=O)[C@@H]4ON(c5ccccc5)C(c5ccco5)[C@@H]4C3=O)cc2)cc1 (some centres undefined)	> 100 µM
CCOC(=O)C(NC(=O)Nc1ccc(Cl)cc1)(OC)C(F)(F)F (centres undefined)	> 100 µM

###

Quick list: TGI per entry.
tested on: MDA-N; experiment: NCI tumour cell line growth inhibition, 48 h

compound	value prefix	TGI / µM
O=C(CC(=O)Nc1ccccc1)NNC(c1cc(N=Nc2ccc(Br)cc2)ccc1O)P(O)O (stereo not drawn)	>	10
Cc1cc(C)nc(NS(=O)(=O)c2ccc(NC(=O)c3cccc4c(NNc5ccc(S(=O)(=O)N=C(N)N)cc5)c5ccccc5nc34)cc2)n1	>	50
COc1ccc(C2c3cc4c(cc3OC(NCCO)C2C)OCO4)cc1 (stereo not drawn)	=	63.7
COc1ccc2c(c1)c(=O)c1c(NCCNCCO)ccc3c(=O)n(CCN(C)C)c(=O)n2c31	=	0.279
CC(C)C1=C(O)C2=C(C(=O)C1=O)C1(C)CCCC(C)(C)C1C(O)C2OC=O (stereo not drawn)	=	28.1
COC(=O)C1(O)C(c2ccccc2)=NC2(C)CCCC21 (stereo not drawn)	>	100
CC(C)[Si](OC/C(=C/COC(C)(C)C)[C@H]1CC=C(C(=O)c2ccccc2N2CN(C)C(=O)N(C)C2)C1)(C(C)C)C(C)C	=	4.62
COC(=O)[C@H](Cc1ccccc1)NC(=O)N(CCC#N)CCN(C(=O)N[C@@H](Cc1ccccc1)C(=O)OC)c1ccccc1	=	33.8

###

test system: SF-295 CNS; assay: NCI tumour cell line growth inhibition, 48 h
Quick list: GI50 per entry.
quantity name: GI50

compound	test system	quantity name	measurement
O=C(/C=C/c1cccc(O)c1)c1cccc(-n2cc(-c3ccc4ccccc4c3)[nH]c2=O)c1	SF-295 CNS	GI50	1.44 µM
CC1c2ccccc2N=C2SC(=S)N3CCN=C3N21 (stereo not given)	SF-295 CNS	GI50	97.8 µM
CCOC(=O)N1CCN(CCCCCOc2ccccc2C2CCCCC2)CC1	SF-295 CNS	GI50	2.65 µM
CSc1ccc(N(C)c2nc(C)nc3c2CCC3)cc1	SF-295 CNS	GI50	< 0.01 µM
COc1ccc(C(=O)c2nc3ccccc3n2CC(=O)c2ccc(Cl)cc2)cc1	SF-295 CNS	GI50	2.5 µM
COc1ccc(Nc2nccc(N3CCN(c4c5ccc(Cl)cc5nc5ccc(OC)cc45)CC3)n2)cc1	SF-295 CNS	GI50	10.7 µM
CCNCCNc1cc(-c2ccc(C#N)cc2)c(C#N)c2nc3ccccc3n12	SF-295 CNS	GI50	1.79 µM
CC(C)Oc1ccc(C(=O)Cn2ccnc2)cc1-n1c(CN2CCN(C(=O)COc3ccc(Cl)cc3)CC2)nc2ccccc2c1=O	SF-295 CNS	GI50	14.8 µM
CC(=O)[CH-]C(=O)c1ccccc1.CC(=O)[CH-]C(=O)c1ccccc1.CC1(C)OCC(C2OC3OC(C)(C)OC3C2[O-])O1.CC[O-].[Ti+4] (stereo not given)	SF-295 CNS	GI50	17.1 µM
O=C1c2ccccc2-c2c1c1ccccc1c(=O)n2CCNCCn1c2c(c3ccccc3c1=O)C(=O)c1ccccc1-2	SF-295 CNS	GI50	> 25 µM

###

test system: MDA-N; assay: NCI tumour cell line growth inhibition, 48 h
quantity name: TGI

molecule	measurement
C/C(=N\Nc1nc2ccccc2s1)c1ccc2ccccc2n1	> 100 µM
C=CC1=C(C)C2=NC1=CC1=NC(=CC3=C(C)C4=C(O)[C@H](C(=O)OC)C(=C5NC(=C2)[C@@H](C)[C@@H]5CCC(=O)O)C4=N3)C(CC)=C1C	> 100 µM
Cc1c(-c2ccccc2)[nH]n(C2=NCCN2)c1=O	> 100 µM
COc1c(O)c(OC)c2oc(-c3ccc(O)cc3)c(OC)c(=O)c2c1O	> 100 µM
Cc1ccc(NC(=O)/C(Cc2cc(=O)oc3cc(O)ccc23)=N\NC(=O)C[N+](C)(C)C)cc1C	> 100 µM
COc1ccc(OC)c2sc(N3C(=O)/C(=C/c4cccc([N+](=O)[O-])c4)N=C3c3ccccc3)nc12	> 100 µM
CC1OC(c2ccc3c(c2O)C(=O)C2=C(C3=O)C3(O)C(=O)CC(C)(O)CC3(O)C=C2)CC(O)C1O (stereo unspecified)	11.7 µM
CC#CC(O)(C(=O)OC1CC(C)N(C)C(C)(C)C1)C1CCCC1 (stereo unspecified)	> 100 µM
CN1N=C(c2ccncc2)OC1c1ccccc1F (stereo unspecified)	> 100 µM
COc1ccc(Oc2cnn(C(Br)(Br)C(C)=O)c(=O)c2Br)cc1	22.9 µM
O=C1OC(c2ccccc2)N(C(=O)c2ccccc2)C1Cc1ccc(OCc2ccccc2)cc1 (stereo unspecified)	> 100 µM
